- test_target: PDGFRβ (Homo sapiens, UniProt P09619)
endpoint: IC50
Express your answer as a number followed by its unit.

Task: Which IC50 value belongs to `COc1cc2c(Nc3ccc(Br)cc3F)ncnc2cc1OCCCCN(C)C.Cl.Cl` ?
Result: 165 nM

###

- test_target: UniProtKB P04626
- Sequence (P04626 23-1255): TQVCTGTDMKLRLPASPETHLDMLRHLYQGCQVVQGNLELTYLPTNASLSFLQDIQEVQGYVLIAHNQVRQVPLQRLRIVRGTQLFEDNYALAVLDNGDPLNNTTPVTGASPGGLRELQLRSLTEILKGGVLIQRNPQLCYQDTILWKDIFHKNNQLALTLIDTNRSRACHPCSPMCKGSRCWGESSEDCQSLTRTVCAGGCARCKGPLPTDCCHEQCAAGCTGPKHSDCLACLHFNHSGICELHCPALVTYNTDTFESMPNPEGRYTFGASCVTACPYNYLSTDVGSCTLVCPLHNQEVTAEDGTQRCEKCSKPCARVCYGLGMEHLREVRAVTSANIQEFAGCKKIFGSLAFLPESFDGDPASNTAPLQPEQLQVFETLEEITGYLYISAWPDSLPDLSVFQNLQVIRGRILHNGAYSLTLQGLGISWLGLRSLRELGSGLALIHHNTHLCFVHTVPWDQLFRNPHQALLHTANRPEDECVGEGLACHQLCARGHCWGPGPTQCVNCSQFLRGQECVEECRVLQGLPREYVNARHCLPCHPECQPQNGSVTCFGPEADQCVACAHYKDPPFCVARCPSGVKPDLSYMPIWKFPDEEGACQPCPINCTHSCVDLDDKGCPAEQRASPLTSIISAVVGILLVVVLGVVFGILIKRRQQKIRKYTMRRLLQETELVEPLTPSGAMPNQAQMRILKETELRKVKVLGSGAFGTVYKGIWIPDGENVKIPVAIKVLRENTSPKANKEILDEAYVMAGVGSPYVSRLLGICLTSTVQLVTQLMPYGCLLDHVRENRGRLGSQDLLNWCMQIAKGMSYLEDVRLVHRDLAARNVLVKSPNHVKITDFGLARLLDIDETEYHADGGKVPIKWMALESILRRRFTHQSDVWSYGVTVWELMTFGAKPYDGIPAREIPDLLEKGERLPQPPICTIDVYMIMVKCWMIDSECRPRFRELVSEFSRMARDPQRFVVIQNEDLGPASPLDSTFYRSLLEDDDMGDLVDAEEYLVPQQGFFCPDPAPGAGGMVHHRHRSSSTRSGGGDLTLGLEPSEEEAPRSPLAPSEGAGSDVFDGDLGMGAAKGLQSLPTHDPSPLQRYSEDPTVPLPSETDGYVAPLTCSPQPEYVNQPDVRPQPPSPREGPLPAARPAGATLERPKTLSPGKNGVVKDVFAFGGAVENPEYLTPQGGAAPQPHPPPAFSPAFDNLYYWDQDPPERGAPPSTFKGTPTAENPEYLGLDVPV
endpoint: IC50 (nM)
# output: bare number, implied unit nM

Task: What is its IC50 for UniProtKB P04626? Entry: `COc1cc2c(Nc3ccc(Br)cc3F)ncnc2cc1OCCCCN(C)C.Cl.Cl`
Result: 42

###

- test_target: TrkA (Homo sapiens)
- Sequence (P04629 33-796): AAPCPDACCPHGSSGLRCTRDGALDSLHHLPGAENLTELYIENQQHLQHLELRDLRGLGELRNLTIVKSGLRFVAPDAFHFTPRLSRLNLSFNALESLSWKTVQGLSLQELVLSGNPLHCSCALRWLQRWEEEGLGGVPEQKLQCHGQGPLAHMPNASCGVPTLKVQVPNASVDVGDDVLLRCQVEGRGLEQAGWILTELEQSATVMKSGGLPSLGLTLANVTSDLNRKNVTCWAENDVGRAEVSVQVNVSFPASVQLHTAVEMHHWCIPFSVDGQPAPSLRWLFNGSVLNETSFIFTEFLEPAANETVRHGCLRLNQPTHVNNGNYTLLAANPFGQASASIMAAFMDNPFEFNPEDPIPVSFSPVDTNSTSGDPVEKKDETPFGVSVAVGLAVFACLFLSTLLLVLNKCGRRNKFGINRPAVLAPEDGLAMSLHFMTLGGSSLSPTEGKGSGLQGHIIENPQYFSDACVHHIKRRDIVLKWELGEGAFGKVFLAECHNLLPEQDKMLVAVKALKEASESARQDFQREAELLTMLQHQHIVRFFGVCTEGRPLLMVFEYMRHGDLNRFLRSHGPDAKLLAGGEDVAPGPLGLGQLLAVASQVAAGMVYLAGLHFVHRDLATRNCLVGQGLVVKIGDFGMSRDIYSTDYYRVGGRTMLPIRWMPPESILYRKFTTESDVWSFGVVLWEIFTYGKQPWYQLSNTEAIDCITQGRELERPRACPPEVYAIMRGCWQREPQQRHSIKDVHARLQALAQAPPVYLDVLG
endpoint: pIC50
pIC50 (log units): -log10 of the concentration in mol/L.

Task: Endpoint output: pIC50 of `COc1cc2c(Nc3ccc(Br)cc3F)ncnc2cc1OCCCCN(C)C.Cl.Cl` . Value?
Result: 5.87

###

- test_target: FMS (Homo sapiens, UniProt P07333)
- Sequence (P07333 20-972): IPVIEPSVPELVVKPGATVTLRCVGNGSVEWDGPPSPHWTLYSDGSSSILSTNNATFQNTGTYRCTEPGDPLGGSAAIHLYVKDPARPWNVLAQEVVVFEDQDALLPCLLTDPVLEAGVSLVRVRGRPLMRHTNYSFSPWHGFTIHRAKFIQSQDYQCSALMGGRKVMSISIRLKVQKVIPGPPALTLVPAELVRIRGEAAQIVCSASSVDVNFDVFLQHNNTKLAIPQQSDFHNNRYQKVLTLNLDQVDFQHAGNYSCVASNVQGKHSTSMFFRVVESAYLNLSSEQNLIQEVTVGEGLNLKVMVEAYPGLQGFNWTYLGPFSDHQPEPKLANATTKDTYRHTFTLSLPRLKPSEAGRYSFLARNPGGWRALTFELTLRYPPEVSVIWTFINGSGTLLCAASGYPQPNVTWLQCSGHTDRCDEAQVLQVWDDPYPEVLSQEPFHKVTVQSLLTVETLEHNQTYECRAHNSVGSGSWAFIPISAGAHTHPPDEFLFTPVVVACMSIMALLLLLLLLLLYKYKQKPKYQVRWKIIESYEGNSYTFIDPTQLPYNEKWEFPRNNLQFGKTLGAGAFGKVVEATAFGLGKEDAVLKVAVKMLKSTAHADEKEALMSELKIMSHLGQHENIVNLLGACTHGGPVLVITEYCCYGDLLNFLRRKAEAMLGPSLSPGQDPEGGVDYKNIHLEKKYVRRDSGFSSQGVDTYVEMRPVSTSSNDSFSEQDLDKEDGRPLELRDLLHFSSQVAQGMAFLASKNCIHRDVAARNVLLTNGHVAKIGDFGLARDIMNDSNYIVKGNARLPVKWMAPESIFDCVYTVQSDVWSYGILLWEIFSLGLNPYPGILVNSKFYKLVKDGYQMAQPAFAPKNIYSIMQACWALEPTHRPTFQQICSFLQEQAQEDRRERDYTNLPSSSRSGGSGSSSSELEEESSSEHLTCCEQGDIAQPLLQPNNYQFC
endpoint: pIC50
The scale used: pIC50 is minus the common logarithm of the concentration in molar units.

Task: // lookup pIC50 | system=FMS (Homo sapiens, UniProt P07333) | key= `COc1cc2c(Nc3ccc(Br)cc3F)ncnc2cc1OCCCCN(C)C.Cl.Cl`
Result: 5.54

###

- test_target: KDR (Homo sapiens, UniProt P35968)
endpoint: IC50

Task: Please state recorded IC50 (tested on KDR (Homo sapiens, UniProt P35968)) of COc1cc2c(Nc3ccc(Br)cc3F)ncnc2cc1OCCCCN(C)C.Cl.Cl [HA121-28]
Result: 35.7 nM

###

- test_target: UniProt:Q06187
- Sequence (Q06187 whole entry): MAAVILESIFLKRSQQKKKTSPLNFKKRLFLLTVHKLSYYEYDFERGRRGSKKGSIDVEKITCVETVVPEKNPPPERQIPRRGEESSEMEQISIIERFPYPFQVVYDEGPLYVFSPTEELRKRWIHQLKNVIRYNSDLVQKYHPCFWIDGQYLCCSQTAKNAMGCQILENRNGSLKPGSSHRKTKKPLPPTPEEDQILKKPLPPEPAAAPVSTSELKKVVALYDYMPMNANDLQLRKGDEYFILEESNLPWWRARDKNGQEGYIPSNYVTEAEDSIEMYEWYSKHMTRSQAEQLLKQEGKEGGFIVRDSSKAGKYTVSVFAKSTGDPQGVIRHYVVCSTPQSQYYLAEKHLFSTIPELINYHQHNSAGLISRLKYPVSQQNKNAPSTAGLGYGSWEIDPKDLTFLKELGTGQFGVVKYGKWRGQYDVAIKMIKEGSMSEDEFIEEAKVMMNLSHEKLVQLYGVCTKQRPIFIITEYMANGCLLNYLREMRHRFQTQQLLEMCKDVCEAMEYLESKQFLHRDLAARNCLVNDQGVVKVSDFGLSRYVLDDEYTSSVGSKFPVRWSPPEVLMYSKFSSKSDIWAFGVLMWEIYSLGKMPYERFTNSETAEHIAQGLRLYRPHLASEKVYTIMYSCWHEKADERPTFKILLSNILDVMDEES
endpoint: IC50 (nM)
Please reply with the bare figure in nM and do not write the unit itself.

Task: Which IC50 is listed for COc1cc2c(Nc3ccc(Br)cc3F)ncnc2cc1OCCCCN(C)C.Cl.Cl [HA121-28] ?
Result: 446

###

- test_target: UniProtKB Q04912
pIC50: −log10 of the molar value.
endpoint: pIC50

Task: Item under review: `COc1cc2c(Nc3ccc(Br)cc3F)ncnc2cc1OCCCCN(C)C.Cl.Cl` . Reported pIC50?
Result: < 5.00

###

- test_target: ABL1 (Homo sapiens, UniProt P00519)
- Sequence (P00519 whole entry): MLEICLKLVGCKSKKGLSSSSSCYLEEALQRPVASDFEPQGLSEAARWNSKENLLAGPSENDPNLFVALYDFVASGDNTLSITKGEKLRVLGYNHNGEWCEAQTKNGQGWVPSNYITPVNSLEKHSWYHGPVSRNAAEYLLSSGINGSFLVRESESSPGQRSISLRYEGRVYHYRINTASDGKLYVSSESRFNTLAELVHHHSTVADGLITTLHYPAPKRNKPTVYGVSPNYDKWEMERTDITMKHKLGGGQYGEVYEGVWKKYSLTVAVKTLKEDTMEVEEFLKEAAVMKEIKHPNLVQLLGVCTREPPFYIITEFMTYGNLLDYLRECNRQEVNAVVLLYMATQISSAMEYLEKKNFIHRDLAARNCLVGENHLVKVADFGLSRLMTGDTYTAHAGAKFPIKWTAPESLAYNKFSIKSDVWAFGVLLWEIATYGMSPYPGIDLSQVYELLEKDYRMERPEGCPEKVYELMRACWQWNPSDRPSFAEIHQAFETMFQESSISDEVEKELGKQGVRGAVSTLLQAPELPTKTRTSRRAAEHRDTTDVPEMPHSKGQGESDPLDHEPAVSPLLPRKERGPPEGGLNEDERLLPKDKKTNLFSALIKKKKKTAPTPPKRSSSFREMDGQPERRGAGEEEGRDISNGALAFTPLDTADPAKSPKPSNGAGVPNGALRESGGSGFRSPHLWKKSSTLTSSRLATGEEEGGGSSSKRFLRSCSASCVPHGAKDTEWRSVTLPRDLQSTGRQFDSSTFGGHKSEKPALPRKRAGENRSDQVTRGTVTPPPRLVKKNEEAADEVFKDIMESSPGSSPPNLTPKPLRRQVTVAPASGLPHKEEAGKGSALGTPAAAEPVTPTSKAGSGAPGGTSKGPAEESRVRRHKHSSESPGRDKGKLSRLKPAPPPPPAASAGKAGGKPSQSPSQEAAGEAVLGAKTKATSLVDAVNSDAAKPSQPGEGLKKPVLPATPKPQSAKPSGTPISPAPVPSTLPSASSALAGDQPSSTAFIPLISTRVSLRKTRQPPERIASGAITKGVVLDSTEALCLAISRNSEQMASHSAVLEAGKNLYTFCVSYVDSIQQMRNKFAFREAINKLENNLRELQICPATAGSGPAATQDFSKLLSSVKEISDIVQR
endpoint: IC50 (nM)
Express it in nM; write the number only.

Task: Param item = `COc1cc2c(Nc3ccc(Br)cc3F)ncnc2cc1OCCCCN(C)C.Cl.Cl` ; retrieve measured IC50.
Result: 153
